tested on: HDQ-P1; conditions: 72 h
Below, each entry is listed alongside its reported EC50, CellTiter-Blue viability.
Quick note: give the figure in µM, leave out the unit.

* O=C(Cc1ccc(-c2ccc(OCCN3CCOCC3)cc2)cn1)NCc1ccccc1 [KX2-391] | 0.0536
* COc1cc2nccc(Oc3ccc(NC(=O)Nc4cc(C)on4)c(Cl)c3)c2cc1OC [Tivozanib] | 0.774
* CC(=O)Nc1cccc(-n2c(=O)n(C3CC3)c(=O)c3c(Nc4ccc(I)cc4F)n(C)c(=O)c(C)c32)c1 | 0.00417

Could you share what EC50, CellTiter-Blue viability was measured for C=CC(=O)N1CCC[C@@H](n2nc(-c3ccc(Oc4ccccc4)cc3)c3c(N)ncnc32)C1 , tested on HDQ-P1?
0.407
